Assay: qHTS assay to identify small molecule HDAC inhibitors (AID 1259364);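 note: wild-type HCT-116 cells with endogenous class I/II HDAC activity; top concentration of the series differs between compounds; % is set by controls: 0 for no effect and ±100 for the full control effect; nearly all actives have a fitted effect of over 45% in size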
Conditions: HCT-116 HDAC-Glo I/II luminescence, 2 h; series mostly up to 92.4 µM
Excerpt: U.S. Tox21 Program National Center for Advancing Translational Sciences [NCATS] NIH Chemical Genomics Center [NCGC] U.S. Environmental Protection Agency [EPA] National Institutes of Environmental Health Sciences [NIEHS] National Toxicology Program [NTP] U.S. Food and Drug Administration [FDA] Tox21 Assay Overview: Histone deacetylases (HDACs) are a group of epigenetic enzymes that regulate gene expression by histone deacetylation. […]
Inconclusive results are not listed. Activity calls are given as the source filed them. Calls come from the whole dose curve; as a rule, active = well fitted inhibition curve with a large enough effect in the repeat runs; inconclusive = weak or mixed curves; inactive = flat fitted curve, though single readings scatter.
Please answer using one outcome listed in T = active, F = inactive

{"molecule": "O=C(O)Cc1cc(I)c(Oc2cc(I)c(O)c(I)c2)c(I)c1", "category": "F"}

// query Hi team, can someone confirm the assay call for CCCCCCC(=O)OCC ?
// result F

// query Next molecule: CC1(C)SC(C)(C)SC(C)(C)S1
// result F

----------
Biological target: Cytochrome P450 2C19 (Homo sapiens)
Experiment: Cytochrome P450 Family 2 Subfamily C Member 19 (CYP2C19) small molecule antagonists: luciferase reporter qHTS assay (AID 1671197); note: nearly all actives have a fitted effect of over 65% in size
Conditions: P450-Glo CYP2C19 enzyme, luciferin luminescence, 1 h; series mostly up to 115 µM
Records with an inconclusive call do not appear. Calls of active or inactive are those of the source. Calls come from the whole dose curve; as a rule, active = well fitted inhibition curve with a large enough effect in the repeat runs; inconclusive = weak or mixed curves; inactive = no such curve, though single readings can be large or run the other way.
Please answer using one outcome listed in class 1 for active, class 0 for inactive

Illustrative cases are given below, each with its answer.
{"compound": "COc1cccc(OC)c1", "category": "class 0"}
{"compound": "O=[N+]([O-])c1ccc(Oc2ccc([N+](=O)[O-])cc2)cc1", "category": "class 1"}
{"compound": "Nc1cc(N)cc(C(=O)O)c1", "category": "class 1"}

// query Hi team, can someone confirm the assay call for C=C(C)[C@H]1CC=C(C)CC1 ?
// result class 0

// query Next compound: CC1(C)OC(=O)Nc2ccc(Br)cc21
// result class 1

// query Next compound: CCC(=O)Nc1cccc(N)c1
// result class 0

// query Next compound: COc1ccc(COC=O)cc1
// result class 0

// query Next compound: OC/C=C/c1ccccc1
// result class 1

// query Next compound: CO[Si](OC)(OC)OC
// result class 0

// query Next compound: CCOC(=O)Nc1ccc2c(c1)N(C(=O)CCN1CCOCC1)c1ccccc1S2
// result class 1

// query Next compound: CC/C=C\CCCCO
// result class 0

----------
Experiment: Human pregnane X receptor (PXR) small molecule agonists, qHTS cell viability counter screen (AID 1346977); note: % is set by controls: 0 for no effect and ±100 for the full control effect; nearly all actives have a fitted effect of over 50% in size
Details: PXR-Luc HepG2 viability, CellTiter-Fluor, 24 h; series mostly up to 92.4 µM
Excerpt: U.S. Tox21 Program National Center for Advancing Translational Sciences [NCATS] NIH Chemical Genomics Center [NCGC] U.S. Environmental Protection Agency [EPA] National Institutes of Environmental Health Sciences [NIEHS] National Toxicology Program [NTP] U.S. Food and Drug Administration [FDA] […]
Inconclusive results are not listed. Activity calls are given as the source filed them. Calls follow the shape of the dose curve; as a rule, active = well fitted cell-killing curve with a large enough effect in the repeat runs; inconclusive = weak or mixed curves, or effect the other way; inactive = flat fitted curve, though single readings scatter.
assay metric: activity change, negative = cytotoxicity

{"compound": "NC(=S)Nc1cccc2ccccc12", "activity change, negative = cytotoxicity": "-0.344% [at 8.39 µM] (inactive)"}
{"compound": "CCn1cc(C(=O)O)c(=O)c2cc(F)c(N3CCN(C)CC3)cc21", "activity change, negative = cytotoxicity": "4.23% [at 19 µM] (inactive)"}
{"compound": "C/C=C1\\C(=O)C[C@H]2[C@@H]3CCC4=CC(=O)CC[C@]4(C)[C@H]3CC[C@]12C", "activity change, negative = cytotoxicity": "inactive"}
{"compound": "Oc1cc(O)c2c(c1)O[C@H](c1ccc(O)c(O)c1)[C@H](O)C2", "activity change, negative = cytotoxicity": "inactive"}
{"compound": "Cc1ccc(Nc2ccc(O)c3c2C(=O)c2ccccc2C3=O)cc1", "activity change, negative = cytotoxicity": "inactive"}

// query Reported activity change, negative = cytotoxicity for N#CCc1ccccc1[N+](=O)[O-] : what is it?
// result inactive

// query Next compound: c1ccc2cnncc2c1
// result inactive

// query Next compound: C=C(C)[C@@H]1CCC2=CC(=O)C[C@@H](C)[C@]2(C)C1
// result inactive

// query Next compound: COC(C(=O)O)c1ccccc1 (configuration not stated)
// result inactive

// query Next compound: O=C(O)/C=C/c1ccc(Cn2ccnc2)cc1
// result inactive

// query Next compound: COc1cccc(Br)c1
// result inactive

// query Next compound: FC(F)(F)C(F)(F)C(F)(F)C(F)(F)C(F)(F)C(F)(F)C(F)(F)C(F)(F)C(F)(F)C(F)(F)F
// result 1.13% [at 8.39 µM] (inactive)
